- PROTOCOL_DESCRIPTION: Half life in human MT2 cells by HPLC analysis
READOUT: half-life (min)
Write the answer as a number in min, unit excluded.

Give a short answer stating reported half-life for CC(C)OC(=O)[C@H](C)N[P@](=O)(CO[C@H](C)Cn1cnc2c(N)ncnc21)Oc1ccccc1 [TENOFOVIR ALAFENAMIDE] . 28.3
